molecular target: HLA-B∗39:06 (purified MHC molecules) (human); experiment: radioligand binding
No end group written: not given here.
Quantity: pIC50
Recall that pIC50 is obtained by taking minus log10 of the concentration measured in molar.

Consider the reported pIC50 for these binders:
NRVMLPKAA [… (NLRP2 320 to 328), free peptide] | 7.85
SASIPLTVVA [… (human G6Pase 2, position 328)] | 6.51

[in] Give recorded pIC50. FRYQGHVGA (not fully specified) [… (Homo sapiens proteasome subunit 127–135)]
[out] 7.62

[in] Give recorded pIC50. FLFLFAVG [FLFLFAVG (human G6Pase 2, position 213)]
[out] 6.39

[in] Give recorded pIC50. WMRLLPLLA [… (human insulin, position 4)]
[out] 6.81
